Source listed as patent US7485759B2.

- protocol text: Ligand basicity measured by pKa
- Type: physicochemical
- stated conditions: est = estimated value
recorded endpoint: pKa

1) CCCCCCCCP(CCCCCCCC)CCCCCCCC [tri-n-octylphosphine]: ≥ 8.3

Then this molecule:
Ask: Given the entry CCCCP(CCCC)C1CCCCC1 [Cyclohexyldi-n-butylphosphine] , report its measured pKa.
Result: ~8.9
